target: HIS-TGFβR1 T204D (Homo sapiens, UniProt P36897, T204D); experiment: HTRF probe-displacement assay, HIS-TGFβR1 T204D; assay type: binding; conditions: read-out: TGFβR1 (μM) IC50
measured_quantity: IC50 (µM)

Reference set (2 entries):
compound	test_value
CC(=O)Nc1cc(-c2[nH]c3nccnc3c2-c2cccc(Cl)n2)ccn1 [Example 55]	0.003
CC(=O)Nc1cc(-c2[nH]c3c(C(C)O)ccnc3c2-c2nc(C)cs2)ccn1 (stereo not shown) [Example 232]	0.003

a = CCOc1cnc2c(-c3ccc(OC)cn3)c(-c3ccnc(NC(C)=O)c3)[nH]c2c1 [Example 96]
b = CC(=O)Nc1cc(-c2[nH]c3cc(Cl)cnc3c2-c2cccc(C(C)C)n2)ccn1 [Example 260]
[in] Could you point out whether the larger IC50 belongs to a or to b ? API: response body contains the label of the selected item.
[out] b

---

Molecular target: HIS-TGFβR1 T204D (Homo sapiens, UniProt P36897, T204D)
Sequence (P36897 34-503 T204D): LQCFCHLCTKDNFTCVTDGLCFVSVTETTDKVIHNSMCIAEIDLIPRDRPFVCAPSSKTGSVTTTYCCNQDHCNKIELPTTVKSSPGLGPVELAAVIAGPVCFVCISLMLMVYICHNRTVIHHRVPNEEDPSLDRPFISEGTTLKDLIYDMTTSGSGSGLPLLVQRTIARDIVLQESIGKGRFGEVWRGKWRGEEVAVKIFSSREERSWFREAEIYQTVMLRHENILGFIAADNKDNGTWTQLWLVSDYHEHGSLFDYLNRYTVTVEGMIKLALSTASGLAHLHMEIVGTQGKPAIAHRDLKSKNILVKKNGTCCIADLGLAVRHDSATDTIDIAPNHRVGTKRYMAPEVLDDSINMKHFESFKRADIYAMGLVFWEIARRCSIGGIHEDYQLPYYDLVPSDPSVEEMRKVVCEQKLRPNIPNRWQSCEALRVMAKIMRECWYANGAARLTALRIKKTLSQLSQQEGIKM
Test: HTRF probe-displacement assay, HIS-TGFβR1 T204D
Assay type: binding
Settings: read-out: TGFβR1 (μM) IC50
measured_quantity: IC50 (µM)

Reference set (8 entries):
compound	IC50 (µM)
O=C(CNCCCN1CCOCC1)Nc1cc(-c2[nH]c3cc(Cl)cnc3c2-c2ccc(F)cn2)ccn1	0.003
CC(=O)Nc1cc(-c2[nH]c3cccnc3c2-c2nccc(Cl)n2)ccn1	3.54
COc1ccc(-c2c(-c3ccnc(NC(C)=O)c3)[nH]c3c(Cl)ccnc23)nc1	0.009
COc1ccc(-c2c(-c3ccnc(NC(C)=O)c3)[nH]c3c(C#N)ccnc23)cn1	0.007
COc1ccnc2c(-c3cccc(C(F)F)n3)c(-c3ccnc(NC(C)=O)c3)[nH]c12	0.002
O=C(CO)Nc1cc(-c2[nH]c3cc(Cl)cnc3c2-c2ccc(F)cn2)ccn1	0.008
COc1ccc(-c2c(-c3ccnc(NC(C)=O)c3)[nH]c3c(OC)ccnc23)nc1	0.005
CC(=O)Nc1cc(-c2[nH]c3c(CO)ccnc3c2-c2cccc(F)n2)ccn1	0.003

I = CC(=O)Nc1cc(-c2[nH]c3cccnc3c2-c2cc(Cl)ccn2)ccn1
II = CC(=O)Nc1cc(-c2[nH]c3c(C(C)O)ccnc3c2-c2cccc(F)n2)ccn1 (stereo not shown)
III = CC(=O)Nc1cc(-c2[nH]c3c(Cl)ccnc3c2-c2cccc(F)n2)ccn1
[in] Could you please sort these 3 entries by IC50 from high to low? Put the labels in the requested order and write them down.
[out] I, III, II

1 = CC(=O)Nc1cc(-c2[nH]c3c(C4CCOCC4)ccnc3c2-c2cccc(C)n2)ccn1
2 = COc1ccc(-c2c(-c3ccnc(NC(C)=O)c3)[nH]c3cc(N4CCC(NC(C)=O)CC4)cnc23)nc1
3 = COc1cnc2c(-c3cccc(C)n3)c(-c3ccnc(NC(=O)CN4CCN(CCO)CC4)c3)[nH]c2c1
[in] Could you please sort these 3 entries by IC50 from high to low? Put the labels in the requested order and write them down.
[out] 2, 1, 3
(2: 0.0311 µM, 1: 0.006 µM, 3: 0.001 µM)

P = COc1ccc(-c2c(-c3ccnc(NC(C)=O)c3)[nH]c3cc(N4CCC[C@@H]4CO)cnc23)nc1
Q = [2H]C([2H])([2H])Oc1ccc(-c2c(-c3ccnc(NC(C)=O)c3)[nH]c3cc(Cl)cnc23)nc1
[in] Could you point out whether the larger IC50 belongs to P or to Q ? API: response body contains the label of the selected item.
[out] P

---

biological target: HIS-TGFβR2 WT (Homo sapiens, UniProt P37173); assay: HTRF probe-displacement assay, HIS-TGFβR2 WT; format: binding
Sequence (P37173 23-567): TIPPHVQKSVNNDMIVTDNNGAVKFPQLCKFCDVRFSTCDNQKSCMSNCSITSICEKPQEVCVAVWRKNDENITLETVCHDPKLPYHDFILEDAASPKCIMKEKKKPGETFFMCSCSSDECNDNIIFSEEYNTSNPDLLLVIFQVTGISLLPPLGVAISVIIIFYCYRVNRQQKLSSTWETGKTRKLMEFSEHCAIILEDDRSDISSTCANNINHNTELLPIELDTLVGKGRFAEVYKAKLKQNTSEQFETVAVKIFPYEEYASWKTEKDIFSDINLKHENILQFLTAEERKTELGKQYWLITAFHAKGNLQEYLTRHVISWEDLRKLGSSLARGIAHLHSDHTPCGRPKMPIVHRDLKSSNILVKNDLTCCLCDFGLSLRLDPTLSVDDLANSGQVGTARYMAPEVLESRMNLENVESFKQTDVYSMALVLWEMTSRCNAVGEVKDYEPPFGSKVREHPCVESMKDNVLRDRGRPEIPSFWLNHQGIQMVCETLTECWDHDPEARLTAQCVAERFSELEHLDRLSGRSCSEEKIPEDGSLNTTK
measured_quantity: IC50 (µM)

A = CC(=O)Nc1cc(-c2[nH]c3c(C(C)(C)O)ccnc3c2-c2cccc(C(F)F)n2)ccn1 [Example 154]
B = COc1ccc(-c2c(-c3ccnc(NC(C)=O)c3)[nH]c3cc(C(=O)C(F)(F)F)cnc23)nc1 [Example 296]
C = COc1cnc2c(-c3ncc(C)s3)c(-c3ccnc(NC(C)=O)c3)[nH]c2c1 [Example 209]
[in] Lab note: arrange the 3 molecules above from lowest to highest IC50. Put the labels in the requested order and write them down.
[out] C, A, B

---

molecular target: HIS-TGFβR1 T204D (Homo sapiens, UniProt P36897, T204D); test: HTRF probe-displacement assay, HIS-TGFβR1 T204D; format: binding; settings: read-out: TGFβR1 (μM) IC50
measured_quantity: IC50 (µM)

Reference set (4 entries):
compound	units_of_measure	IC50
O=C(CN1CCNCC1)Nc1cc(-c2[nH]c3cc(Cl)cnc3c2-c2ccc(F)cn2)ccn1 [Example 247]	µM	0.003
COc1ccc(-c2c(-c3ccnc(NC(C)=O)c3)[nH]c3c(C(F)F)ccnc23)cn1 [Example 213]	µM	0.0061
CC(=O)Nc1cc(-c2[nH]c3cc(Cl)cnc3c2-c2ncccc2C)ccn1 [Example 259]	µM	0.535
CC(=O)Nc1cc(-c2[nH]c3cc(Cl)cnc3c2-c2nc(C#N)cs2)ccn1 [Example 177]	µM	0.0014

P = CC(=O)Nc1cc(-c2[nH]c3cccnc3c2-c2cc(C)cc(Cl)n2)ccn1 [Example 30]
Q = CC(=O)Nc1cc(-c2[nH]c3cccnc3c2-c2ccc(C#N)nc2)ccn1 [Example 12]
[in] Lower IC50: P or Q ? API: response body contains the label of the selected item.
[out] Q
(Q: 0.058 µM, P: 0.32 µM)

---

Biological target: HIS-TGFβR1 T204D (Homo sapiens, UniProt P36897, T204D)
Sequence (P36897 34-503 T204D): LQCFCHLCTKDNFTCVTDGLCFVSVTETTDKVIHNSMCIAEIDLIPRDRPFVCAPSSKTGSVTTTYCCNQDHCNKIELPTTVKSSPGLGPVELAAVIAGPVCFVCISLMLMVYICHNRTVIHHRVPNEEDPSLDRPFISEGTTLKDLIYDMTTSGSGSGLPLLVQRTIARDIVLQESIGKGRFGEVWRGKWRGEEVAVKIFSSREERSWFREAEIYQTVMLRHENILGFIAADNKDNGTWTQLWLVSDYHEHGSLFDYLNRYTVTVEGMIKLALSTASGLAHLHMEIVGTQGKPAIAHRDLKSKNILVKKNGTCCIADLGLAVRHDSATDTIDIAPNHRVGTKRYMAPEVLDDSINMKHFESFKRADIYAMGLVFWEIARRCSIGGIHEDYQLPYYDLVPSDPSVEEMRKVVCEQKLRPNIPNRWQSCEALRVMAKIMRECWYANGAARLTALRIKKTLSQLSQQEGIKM
Test: HTRF probe-displacement assay, HIS-TGFβR1 T204D
Assay type: binding
Conditions: read-out: TGFβR1 (μM) IC50
measured_quantity: IC50 (µM)

Reference set (3 entries):
compound	assay_system	units_of_measure	test_value
CC(=O)Nc1cc(-c2[nH]c3cccnc3c2-c2ncccn2)ccn1	HIS-TGFβR1 T204D (Homo sapiens, UniProt P36897, T204D)	µM	0.009
COc1ccc(-c2c(-c3ccnc(NC(C)=O)c3)[nH]c3cc(Cl)cnc23)nc1Cl	HIS-TGFβR1 T204D (Homo sapiens, UniProt P36897, T204D)	µM	0.0274
COc1cnc2c(-c3nc(C)cs3)c(-c3ccnc(NC(C)=O)c3)[nH]c2c1	HIS-TGFβR1 T204D (Homo sapiens, UniProt P36897, T204D)	µM	0.0006

1 = CC(=O)Nc1cc(-c2[nH]c3cccnc3c2-c2cccc3ccncc23)ccn1
2 = CN1CCN(CC(=O)Nc2cc(-c3[nH]c4cc(Cl)cnc4c3-c3ccc(F)cn3)ccn2)CC1
3 = CC(=O)Nc1cc(-c2[nH]c3c(C4CCN(C)CC4)ccnc3c2-c2cccc(C(F)F)n2)ccn1
[in] Could you please sort these 3 entries by IC50 from high to low? Put the labels in the requested order and write them down.
[out] 3, 1, 2
(3: 0.058 µM, 1: 0.023 µM, 2: 0.001 µM)

a = CNCc1ccnc2c(-c3cccc(C(F)F)n3)c(-c3ccnc(NC(C)=O)c3)[nH]c12
b = CC(=O)Nc1cc(-c2[nH]c3cc(C)cnc3c2-c2nc(C#N)cs2)ccn1
c = CC(=O)Nc1cc(-c2[nH]c3cccnc3c2-c2cccc3cccnc23)ccn1
d = CC(=O)Nc1cc(-c2[nH]c3cc(Cl)cnc3c2-c2cccc(Cl)n2)ccn1
[in] Could you please sort these 4 entries by IC50 from high to low? Put the labels in the requested order and write them down.
[out] c, a, d, b

a = CC(=O)Nc1cc(-c2[nH]c3c([C@@H](C)O)ccnc3c2-c2cccc(C(F)F)n2)ccn1 (single isomer, unassigned)
b = COc1ccc(-c2c(-c3ccnc(NC(C)=O)c3)[nH]c3c(CN)ccnc23)cn1
c = COc1ccc(-c2c(-c3ccnc(NC(C)=O)c3)[nH]c3cc(C)cnc23)nc1
d = COc1ccc(-c2c(-c3ccnc(NC(C)=O)c3)[nH]c3cc(N4CCOCC4)cnc23)nc1
[in] Could you please sort these 4 entries by IC50 from high to low? Put the labels in the requested order and write them down.
[out] c, b, d, a
(c: 6.52 µM, b: 0.014 µM, d: 0.0053 µM, a: 0.001 µM)
